Every entry's value here was drawn from ChEMBL document CHEMBL5500362.

System: HeLa;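 further: HDAC inhibition in HeLa cells, read on a microplate reader using an acetylated peptide AMC substrate, expressed relative to control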
Conditions: Homo sapiens, dose 100.0 nM, time 15.0 min
Answer each item with its documented inhibition.
Please respond with the number in % and leave the unit unwritten.

## Task I'd like to know its inhibition. The compound in question is O=C(CCCCCCOc1cccc(-c2nc3ccccc3s2)c1Cl)NO
## Result 62

## Task I'd like to know its inhibition. The compound in question is COc1ccc(-c2nc3ccc(Cl)cc3s2)cc1OCCCCCCC(=O)NO
## Result 44.5

## Task I'd like to know its inhibition. The compound in question is COc1cc(-c2nc3ccccc3s2)cc(OC)c1OCCCCCCC(=O)NO
## Result 81.7

## Task I'd like to know its inhibition. The compound in question is O=C(CCCCCCCOc1cccc(-c2nc3ccccc3s2)c1)NO
## Result 65.3

## Task I'd like to know its inhibition. The compound in question is O=C(CCCCOc1ccc(-c2nc3ccccc3s2)cc1)NO
## Result 56

## Task I'd like to know its inhibition. The compound in question is COc1ccc(-c2nc3ccc(F)cc3s2)cc1OCCCCCCC(=O)NO
## Result 77.3

## Task I'd like to know its inhibition. The compound in question is O=C(CCCCCOc1ccc(-c2nc3ccccc3s2)cc1)NO
## Result 26.8

## Task I'd like to know its inhibition. The compound in question is COc1ccc(-c2nc3cc(Cl)ccc3s2)cc1OCCCCCCC(=O)NO
## Result 37.2

## Task I'd like to know its inhibition. The compound in question is COc1ccc(-c2nc3ccccc3s2)cc1OCCCCCCCC(=O)NO
## Result 28.2

## Task I'd like to know its inhibition. The compound in question is O=C(CCCCCCOc1cccc(-c2nc3ccccc3s2)c1)NO
## Result 76.8

## Task I'd like to know its inhibition. The compound in question is Cc1ccc2nc(-c3ccc(OCCCCCCC(=O)NO)cc3)sc2c1
## Result 52.3
